test system: 922993-354-T-J3-PDC complex spheroids, viability; experiment: Anticancer human tumor 922993-354-T-J3-PDC patient-derived endometrial carcinoma cell line growth inhibition [GQUAD]; conditions: second compound 0.0316 µM; first compound 0.000999 µM; hits give low values
Recorded viability, T/C values for a group of molecules are listed next.
Write the value in % as a bare number.

Example cases with answers are listed next.
CCc1c2c(nc3ccc(O)cc13)-c1cc3c(c(=O)n1C2)COC(=O)[C@]3(O)CC + CN(C)c1ccc(Nc2c3ccc(NC(=O)CCN4CCCC4)cc3nc3cc(NC(=O)CCN4CCCC4)ccc23)cc1 = 99.2
CC[C@@]1(O)C(=O)OCc2c1cc1n(c2=O)Cc2cc3c(CN(C)C)c(O)ccc3nc2-1 + Cc1[nH]c2ccc(F)cc2c1-c1nc2c3cccnc3c3ncccc3c2[nH]1 = 91.8
Cc1[nH]c2ccccc2c1CCNCc1ccc(/C=C/C(=O)NO)cc1 + Cc1cnc(CNC(=O)c2c(=O)c3ccc(N4CCCN(C)CC4)nc3n3c2sc2ccccc23)cn1 = 81.9

// switching to the query molecule
Sample Cn1ncnc1[C@H]1c2n[nH]c(=O)c3cc(F)cc(c23)N[C@@H]1c1ccc(F)cc1 + Cc1cnc(CNC(=O)c2c(=O)c3ccc(N4CCCN(C)CC4)nc3n3c2sc2ccccc23)cn1 , system: 922993-354-T-J3-PDC complex spheroids, viability. Its viability, T/C is 93.2

* * *

tested on: 922993-354-T-J3-PDC complex spheroids, viability; assay: Anticancer human tumor 922993-354-T-J3-PDC cell line growth inhibition [GQUAD]; details: second compound 0.316 µM; first compound 0.316 µM; hits give low values;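 further: spheroids exposed to compounds for seven days; 100% = DMSO vehicle control viability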
Threshold 40%. viability, T/C below it: fulfilled. viability, T/C at it or above: not fulfilled.

Take a look at these entries with their results.
COc1cc(C2c3cc4c(cc3C(OC3OC5COC(C)OC5C(O)C3O)C3COC(=O)C23)OCO4)cc(OC)c1O (stereo not given) + CN(C)c1ccc(Nc2c3ccc(NC(=O)CCN4CCCC4)cc3nc3cc(NC(=O)CCN4CCCC4)ccc23)cc1 = not fulfilled
CC1COCCN1c1cc(C2(O)CC3CCC(C2)O3)c2cnn(-c3ccn[nH]3)c2n1 (stereo not given) + CN(C)c1ccc(Nc2c3ccc(NC(=O)CCN4CCCC4)cc3nc3cc(NC(=O)CCN4CCCC4)ccc23)cc1 = not fulfilled
CCCS(=O)(=O)Nc1ccc(F)c(C(=O)c2c[nH]c3ncc(-c4ccc(Cl)cc4)cc23)c1F + Cc1cnc(CNC(=O)c2c(=O)c3ccc(N4CCCN(C)CC4)nc3n3c2sc2ccccc23)cn1 = not fulfilled
COc1cc(C2c3cc4c(cc3C(OC3OC5COC(C)OC5C(O)C3O)C3COC(=O)C23)OCO4)cc(OC)c1O (stereo not given) + Cc1[nH]c2ccc(F)cc2c1-c1nc2c3cccnc3c3ncccc3c2[nH]1 = not fulfilled

Req: Please determine if CCCS(=O)(=O)Nc1ccc(F)c(C(=O)c2c[nH]c3ncc(-c4ccc(Cl)cc4)cc23)c1F + CN(C)c1ccc(Nc2c3ccc(NC(=O)CCN4CCCC4)cc3nc3cc(NC(=O)CCN4CCCC4)ccc23)cc1 is below 40% in terms of viability, T/C.
Resp: not fulfilled

Req: Please determine if CCc1c2c(nc3ccc(O)cc13)-c1cc3c(c(=O)n1C2)COC(=O)[C@]3(O)CC + Cc1[nH]c2ccc(F)cc2c1-c1nc2c3cccnc3c3ncccc3c2[nH]1 is below 40% in terms of viability, T/C.
Resp: fulfilled

Req: Please determine if CCc1c2c(nc3ccc(O)cc13)-c1cc3c(c(=O)n1C2)COC(=O)[C@]3(O)CC + CN(C)c1ccc(Nc2c3ccc(NC(=O)CCN4CCCC4)cc3nc3cc(NC(=O)CCN4CCCC4)ccc23)cc1 is below 40% in terms of viability, T/C.
Resp: fulfilled

Req: Please determine if C=CCn1c(=O)c2cnc(Nc3ccc(N4CCN(C)CC4)cc3)nc2n1-c1cccc(C(C)(C)O)n1 + Cc1[nH]c2ccc(F)cc2c1-c1nc2c3cccnc3c3ncccc3c2[nH]1 is below 40% in terms of viability, T/C.
Resp: not fulfilled

Req: Please determine if CC1COCCN1c1cc(C2(O)CC3CCC(C2)O3)c2cnn(-c3ccn[nH]3)c2n1 (stereo not given) + Cc1cnc(CNC(=O)c2c(=O)c3ccc(N4CCCN(C)CC4)nc3n3c2sc2ccccc23)cn1 is below 40% in terms of viability, T/C.
Resp: fulfilled

Req: Please determine if CC(=O)O[C@H]1C(=O)[C@@]2(C)[C@H]([C@H](OC(=O)c3ccccc3)[C@]3(O)C[C@H](OC(=O)[C@H](O)[C@@H](NC(=O)c4ccccc4)c4ccccc4)C(C)=C1C3(C)C)[C@]1(OC(C)=O)CO[C@@H]1C[C@@H]2O + Cc1cnc(CNC(=O)c2c(=O)c3ccc(N4CCCN(C)CC4)nc3n3c2sc2ccccc23)cn1 is below 40% in terms of viability, T/C.
Resp: not fulfilled

Source of measurements: PubChem BioAssay AID2060489
